- SYSTEM: ERα (Homo sapiens)
- Construct: ERα degradation percent activity in MCF7 neo/HER2 cells
- Sequence (P03372 whole entry): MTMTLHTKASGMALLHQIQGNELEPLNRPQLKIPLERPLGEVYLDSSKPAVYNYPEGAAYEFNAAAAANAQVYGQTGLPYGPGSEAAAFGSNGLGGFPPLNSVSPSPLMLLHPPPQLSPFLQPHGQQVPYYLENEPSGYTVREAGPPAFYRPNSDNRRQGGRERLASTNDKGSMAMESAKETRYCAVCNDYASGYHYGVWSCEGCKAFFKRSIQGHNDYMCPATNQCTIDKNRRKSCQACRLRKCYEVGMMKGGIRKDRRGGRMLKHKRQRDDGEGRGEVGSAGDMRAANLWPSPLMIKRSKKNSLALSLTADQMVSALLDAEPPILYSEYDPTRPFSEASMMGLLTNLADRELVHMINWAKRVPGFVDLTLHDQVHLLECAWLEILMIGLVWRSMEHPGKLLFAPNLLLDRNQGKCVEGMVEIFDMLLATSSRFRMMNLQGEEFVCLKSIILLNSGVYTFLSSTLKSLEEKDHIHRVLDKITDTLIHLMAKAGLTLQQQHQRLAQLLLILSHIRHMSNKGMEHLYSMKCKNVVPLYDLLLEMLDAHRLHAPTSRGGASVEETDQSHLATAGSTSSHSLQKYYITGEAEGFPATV
- EXPERIMENTAL_PROTOCOL: Degradation of ERα by Ab-CIDEs (Example 3, FIGS. 1-3, Tables 2-4)
- Format: cell-based
- EXPERIMENTAL_CONTEXT: ERα degradation by Ab-CIDE
QUANTITY_KIND: DC50 (nM)
Give bare numbers, in nM.

CC/C(=C(/c1ccc(OCCN(C)C(=O)CCOCCOCCC(=O)N[C@H](C(=O)N2C[C@H](OC(=O)OCC(C)(C)SS(C)(=O)=O)C[C@H]2C(=O)NCc2ccc(-c3scnc3C)cc2)C(C)(C)C)cc1)c1ccc(OP(=O)(O)O)cc1)c1ccccc1 [Thio Hu Anti- Her2 7C2 high DAR [LC:K149C HC:L174C HC:Y373C]]
47.4
CC/C(=C(\c1ccc(O)cc1)c1ccc(OCCN(C)C(=O)CCOCCOCCC(=O)N[C@H](C(=O)N2C[C@H](OC(=O)OCC(C)(C)SS(C)(=O)=O)C[C@H]2C(=O)NCc2ccc(-c3scnc3C)cc2)C(C)(C)C)cc1)c1ccccc1 [Thio Hu Anti- Her2 7C2 high DAR [LC:K149C HC:L174C HC:Y373C]]
27.9
CC/C(=C(/c1ccc(OCCN(C)C(=O)CCOCCOCCC(=O)N[C@H](C(=O)N2C[C@H](OC(=O)OCC(C)(C)SS(C)(=O)=O)C[C@H]2C(=O)NCc2ccc(-c3scnc3C)cc2)C(C)(C)C)cc1)c1ccc(OP(=O)(O)O)cc1)c1ccccc1 [Thio Hu Anti- CD22 10F4v3 high DAR [LC:K149C HC:L174C HC:Y37]
1270

Task: Find the measured DC50: item CC/C(=C(\c1ccc(O)cc1)c1ccc(OCCN(C)C(=O)CCOCCOCCC(=O)N[C@H](C(=O)N2C[C@H](OC(=O)OCC(C)(C)SS(C)(=O)=O)C[C@H]2C(=O)NCc2ccc(-c3scnc3C)cc2)C(C)(C)C)cc1)c1ccccc1 [Thio Hu Anti- CD22 10F4v3 high DAR [LC:K149C HC:L174C Y373C]] , target or system ERα (Homo sapiens).
Result: 304
